Entries annotated with measured pIC50
Target: EBP (Homo sapiens, UniProt Q15125)
Construct: HEK293T cells were utilized as the source of EBP enzyme; endogenous in cells
Sequence (Q15125 whole entry): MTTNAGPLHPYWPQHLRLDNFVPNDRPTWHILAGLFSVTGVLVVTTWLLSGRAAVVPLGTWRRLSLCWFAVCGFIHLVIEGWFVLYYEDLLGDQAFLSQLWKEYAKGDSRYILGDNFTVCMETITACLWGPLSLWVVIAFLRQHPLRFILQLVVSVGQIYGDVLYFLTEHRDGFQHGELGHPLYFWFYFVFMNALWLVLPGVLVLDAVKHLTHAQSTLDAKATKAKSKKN
Assay: EBP Functional Assay (EBP immunoaffinity LC-MS assay)
Details: EBP enzyme from HEK293T cells; 30 min with inhibitor, then zymosterol-d5, 37° C., 4 h; percent conversion to dehydrolathosterol-d5 by LC-APCI MRM MS
pIC50: −log10 of the molar value.

Field: example entries. Status: answers known.
| molecule | target_system | pIC50 |
| --- | --- | --- |
| O=S(=O)(c1ccc(OC(F)F)cc1)N1CCO[C@@]2(CCN([C@@H]3CCCOC3)C2)C1 (racemic) [Example 9] | EBP (Homo sapiens, UniProt Q15125) | 5.40 to 6.60 |
| CC1(C)CC(N2CCC3(CC2)CN(S(=O)(=O)c2ccc(OC(F)F)cc2)CCO3)CCO1 (stereo not shown) [Example 21] | EBP (Homo sapiens, UniProt Q15125) | 5.40 to 6.60 |

Query: For the molecule CCc1nc(C(F)F)ccc1S(=O)(=O)N1CC2(CN(C3CC4(COC4)C3)C2)C1 [Example 206] , what pIC50 is on record?
Reply: 6.60 to 7.00

Query: May I ask what pIC50 has been recorded for Cc1nc(C(F)(F)F)ccc1S(=O)(=O)N1CC2(CN(C(C)C34COC(C)(C3)C4)C2)C1 (racemic) [Example 167] ?
Reply: > 7.00

----------
Reported pIC50 values are given for each entry in this list.
Biological target: EBP (Homo sapiens, UniProt Q15125)
Construct: HEK293T cells were utilized as the source of EBP enzyme; endogenous in cells
Experiment: EBP Functional Assay (EBP immunoaffinity LC-MS assay)
Settings: EBP enzyme from HEK293T cells; 30 min with inhibitor, then zymosterol-d5, 37° C., 4 h; percent conversion to dehydrolathosterol-d5 by LC-APCI MRM MS
pIC50: −log10 of the molar value.

| molecule | target_system | pIC50 |
| --- | --- | --- |
| COc1ccc(S(=O)(=O)N2CCC3(CCN(C4CCOCC4)C3)CC2)c(C)n1 [Example 43] | EBP (Homo sapiens, UniProt Q15125) | > 7.00 |
| Cc1nc(C(F)F)ccc1S(=O)(=O)N1CC2(CN(C3CCOCC3)C2)C1 [Example 90] | EBP (Homo sapiens, UniProt Q15125) | 6.60 to 7.00 |

Query: So what does the record say about pIC50 for Cn1nc(C2CC2)cc1S(=O)(=O)N1CC2(CCN(C3CCOCC3)C2)C1 [Example 59] ?
Reply: 6.60 to 7.00

Query: # query: pIC50 of entry O=S(=O)(c1ccc(OC(F)F)cc1)N1CCO[C@@]2(CCN(C3CCOCC3)C2)C1 (single isomer, unassigned) [Example 4]
Reply: > 7.00

Query: So what does the record say about pIC50 for Cc1nc(C(F)(F)F)ccc1S(=O)(=O)N1CC2(CN(C(C)C3CCOC3)C2)C1 (mixture of isomers) [Example 130] ?
Reply: > 7.00

----------
Molecular target: EBP (Homo sapiens)
Construct: HEK293T cells were utilized as the source of EBP enzyme; endogenous in cells
Experiment: EBP Functional Assay (EBP immunoaffinity LC-MS assay)
Details: EBP enzyme from HEK293T cells; 30 min with inhibitor, then zymosterol-d5, 37° C., 4 h; percent conversion to dehydrolathosterol-d5 by LC-APCI MRM MS
readout_label: IC50

Guide cases for IC50, answers given:
| compound | IC50 |
| --- | --- |
| Cc1nc(C(C)(F)F)ccc1S(=O)(=O)N1CC2(CN(CC3(C)CCOCC3)C2)C1 | 100 to 250 nM |
| Cc1ccc(S(=O)(=O)N2CC3(CCN(C4CCOCC4)C3)C2)c(C)c1 | < 100 nM |
| Cc1nc(C(F)(F)F)ccc1S(=O)(=O)N1CC2(CN(CC3CCCOC3)C2)C1 (centres unmarked) | 100 to 250 nM |
| COCCCCCN1CC2(C1)CN(S(=O)(=O)c1ccc(C(F)(F)F)nc1C)C2 | 100 to 250 nM |
| O=S(=O)(c1ccc(C(F)F)nc1C1CC1)N1CC2(CN(C3CCOCC3)C2)C1 | < 100 nM |
| Cc1cc(OC(F)(F)F)ccc1S(=O)(=O)N1CCC2(CCN(C3CCOCC3)C2)CC1 | < 100 nM |

Query: Recorded IC50 for Cc1nc(C(F)(F)F)ccc1S(=O)(=O)N1CC2(CN(C(C)C3COC3)C2)C1 (single isomer, unassigned) [Example 159] , please?
Reply: < 100 nM

Query: What does the record list as IC50 for Cc1nc(C(C)(F)F)ccc1S(=O)(=O)N1CC2(CN(C(C)C3CCOC3)C2)C1 (centres unmarked) ?
Reply: < 100 nM

----------
Biological target: EBP (Homo sapiens)
Construct: HEK293T cells were utilized as the source of EBP enzyme; endogenous in cells; host or cells: HEK293T
Experiment: EBP Functional Assay (EBP immunoaffinity LC-MS assay)
Format: biochemical
Conditions: EBP enzyme from HEK293T cells; 30 min with inhibitor, then zymosterol-d5, 37° C., 4 h; percent conversion to dehydrolathosterol-d5 by LC-APCI MRM MS
Listing of recorded IC50 by entry.

| compound | readout_value |
| --- | --- |
| O=S(=O)(c1cccnc1C(F)(F)F)N1CC2(CN(CC3CCOCC3)C2)C1 | 250 to 4000 nM |
| CC1(O)CCC(N2CC3(C2)CN(S(=O)(=O)c2ccc(C(F)(F)F)nc2C2CC2)C3)CC1 (stereo not shown) [Example 195] | < 100 nM |

Attention now shifts to the item below.
Query: I'd like to know its IC50. The compound in question is Cc1nc(C(F)(F)F)ccc1S(=O)(=O)N1CC2(CN(C[C@H]3[C@H](C#N)C3(C)C)C2)C1 (racemic)
Reply: 100 to 250 nM

----------
Listing of recorded pIC50 by entry.
Molecular target: EBP (Homo sapiens, UniProt Q15125)
Construct: HEK293T cells were utilized as the source of EBP enzyme; endogenous in cells
Assay: EBP Functional Assay (EBP immunoaffinity LC-MS assay)
Conditions: EBP enzyme from HEK293T cells; 30 min with inhibitor, then zymosterol-d5, 37° C., 4 h; percent conversion to dehydrolathosterol-d5 by LC-APCI MRM MS
pIC50: −log10 of the molar value.

| compound | target_system | pIC50 |
| --- | --- | --- |
| O=S(=O)(c1cc(F)cc(F)c1)N1CCO[C@]2(CCN(C3CCOCC3)C2)C1 (single isomer, unassigned) | EBP (Homo sapiens, UniProt Q15125) | > 7.00 |
| Cc1nc(C(F)(F)F)ccc1S(=O)(=O)N1CC2(CN(C(C)C3CCCOC3)C2)C1 (centres unmarked) | EBP (Homo sapiens, UniProt Q15125) | > 7.00 |
| Cc1nc(C(F)(F)F)ccc1S(=O)(=O)N1CC2(CN(C3CC4(CCO4)C3)C2)C1 (racemic) | EBP (Homo sapiens, UniProt Q15125) | 5.40 to 6.60 |
| O=S(=O)(c1ccc(C(F)(F)F)nc1C(F)(F)F)N1CC2(CN(C3CC4(COC4)C3)C2)C1 | EBP (Homo sapiens, UniProt Q15125) | 5.40 to 6.60 |
| O=S(=O)(c1cnc(Cl)c(C(F)(F)F)c1)N1CC2(CN(C3CCOCC3)C2)C1 | EBP (Homo sapiens, UniProt Q15125) | 5.40 to 6.60 |
| Cc1cc(C(F)(F)F)ccc1S(=O)(=O)N1CC2(CN(CC3CCOCC3)C2)C1 | EBP (Homo sapiens, UniProt Q15125) | > 7.00 |
| O=S(=O)(c1ccc(C(F)(F)F)nc1C1CC1)N1CC2(CN(C3CCOCC3)C2)C1 | EBP (Homo sapiens, UniProt Q15125) | > 7.00 |

Switching to the query record.
Query: Field request: pIC50 | item: Cc1nc(OC(F)F)ccc1S(=O)(=O)N1CC2(CN(C3CCOCC3)C2)C1
Reply: > 7.00

----------
Target: EBP (Homo sapiens, UniProt Q15125)
Construct: HEK293T cells were utilized as the source of EBP enzyme; endogenous in cells
Assay: EBP Functional Assay (EBP immunoaffinity LC-MS assay)
Conditions: EBP enzyme from HEK293T cells; 30 min with inhibitor, then zymosterol-d5, 37° C., 4 h; percent conversion to dehydrolathosterol-d5 by LC-APCI MRM MS
The compounds listed here are annotated with their IC50.

Recorded results for 5 compounds are shown here.
| compound | IC50 |
| --- | --- |
| Cc1nc(C(F)(F)F)ccc1S(=O)(=O)N1CC2(CN(C3CCOC3)C2)C1 (stereo not shown) | 250 to 4000 nM |
| O=S(=O)(c1ccc(OC(F)F)cc1)N1CCO[C@@]2(CCN(C3CC4(COC4)C3)C2)C1 (single isomer, unassigned) | 100 to 250 nM |
| Cc1ccc(S(=O)(=O)N2CCC3(CC2)CN(CC2CCOCC2)C3)c(C)c1 | < 100 nM |
| CCc1nc(C(F)F)ccc1S(=O)(=O)N1CC2(CN(C3CCOCC3)C2)C1 | < 100 nM |
| Cc1cc(C(F)(F)F)cnc1S(=O)(=O)N1CC2(CN(CC3CCOCC3)C2)C1 | 250 to 4000 nM |

Query: Which value of IC50 has been reported for Cc1nc(C(F)(F)F)ccc1S(=O)(=O)N1CC2(CN(CC3(C)CCCO3)C2)C1 (stereo not shown) in the records?
Reply: 100 to 250 nM

Query: Can you share its IC50? I mean this compound: Cc1nc(C(F)(F)F)ccc1S(=O)(=O)N1CC2(CN(CC34COC(C)(C3)C4)C2)C1
Reply: 100 to 250 nM

Query: IC50 lookup needed for O=S(=O)(c1ccc(C(F)(F)F)nc1)N1CC2(CN(CC3CCOCC3)C2)C1 , thanks.
Reply: 250 to 4000 nM

Query: I would be grateful if you could share the reported IC50 for COCCOCCCN1CC2(C1)CN(S(=O)(=O)c1ccc(C(F)(F)F)nc1C)C2 .
Reply: 250 to 4000 nM

Query: IC50 for Cc1cc(OC(F)(F)F)ccc1S(=O)(=O)N1CC2(CN(C3CCOCC3)C2)C1 ?
Reply: < 100 nM

Query: Would you kindly share the measured IC50 for CCc1nc(C(F)F)ccc1S(=O)(=O)N1CC2(CN(C3CCC(C)(O)CC3)C2)C1 (stereo not shown) ?
Reply: 100 to 250 nM

Query: I'd like to know its IC50. The compound in question is O=S(=O)(c1ccc(Cl)nc1C(F)(F)F)N1CC2(CN(C3CCOCC3)C2)C1
Reply: 100 to 250 nM
